Cited source: PubChem BioAssay (NCI)

Catalogue of growth readings, one per entry.
System: COLO 205 colon
ASSAY_PROTOCOL: NCI-60 one-dose screen, 48 h (100 = growth as untreated, 0 = no growth, -100 = all killed)
MEASUREMENT_PARAMETERS: 10 µM unless noted
About 83,000 compounds went through this panel and 20% of them were active in at least one assay; those are over-represented in the sample as a whole.

{"MOLECULE": "Cc1ccc(S(=O)(=O)Oc2ccc([N+](=O)[O-])cc2[N+](=O)[O-])cc1", "UNIT_TAG": "%", "growth": 85.8}
{"MOLECULE": "Oc1c(CNCCNCc2cc(Cl)cc(Cc3ccccc3)c2O)cc(Cl)cc1Cc1ccccc1", "UNIT_TAG": "%", "growth": 8.84}
{"MOLECULE": "CCOC(=O)c1sc2nc(-c3cc(OC)c(OC)c(OC)c3)nc(N3CCOCC3)c2c1C", "UNIT_TAG": "%", "growth": 26.5}
{"MOLECULE": "COc1ccc(NC(=O)Nc2ccc(-c3cccnc3)cc2N2CCC(CO)CC2)cc1", "UNIT_TAG": "%", "growth": 70}
{"MOLECULE": "CCn1cc(-c2[nH]c(=S)ncc2-c2ccc(Cl)cc2)c(-c2ccc(Br)cc2)n1", "UNIT_TAG": "%", "growth": 94}
{"MOLECULE": "O=C(Nc1cccc2cccnc12)c1cc(C(=O)c2ccc(Cl)cc2)n2ccc(-c3ccncc3)cc12", "UNIT_TAG": "%", "growth": 111}
{"MOLECULE": "CCc1ccc(NC(=O)N[C@@H](Cc2cc(F)cc(F)c2)C(=O)N[C@@H]2C(=O)N3C[C@H](O)C[C@H]3C(=O)N3CCOC[C@H]3C(=O)N[C@@H](C)C(=O)N3C[C@H](C)C[C@H]3C(=O)O[C@H]2C)cc1", "UNIT_TAG": "%", "growth": 11.1}
{"MOLECULE": "COC(=O)c1cc(O)c2c(c1C(=O)OC)C[C@H]1[C@@H]3CC=C4C[C@@H](O)CC[C@]4(C)[C@H]3CC[C@]21C", "UNIT_TAG": "%", "growth": 83.1}
{"MOLECULE": "CCOc1cccc2c(NC(C)CCCN(CC)CC)c(C)cnc12 (stereo not drawn)", "UNIT_TAG": "%", "growth": 77.1}
{"MOLECULE": "c1cc2ccc3cc2cc1CNCCN1CCNCc2ccc4ccc(cc4c2)CNCCN(CCNC3)CCNCc2ccc3ccc(cc3c2)CNCC1", "UNIT_TAG": "%", "growth": -32.7}
{"MOLECULE": "COc1cc(/C=C/C(=O)/C=C/c2ccc(-n3ccnc3C)cc2)ccc1O", "UNIT_TAG": "%", "growth": 60.1}
{"MOLECULE": "CCOC(=O)C(C(C)=O)c1nc2sc3cc(Cl)c(Cl)cc3n2c(=O)c1C#N (stereo not drawn)", "UNIT_TAG": "%", "growth": 108}
{"MOLECULE": "C=CC1=C(C)C2=NC1=CC1=NC(=CC3=C(C)C4=C(O)C(C(=O)O)C(=C5NC(=C2)C(C)C5CCC(=O)O)C4=N3)C(CC)=C1C (stereo not drawn)", "UNIT_TAG": "%", "growth": 114}
{"MOLECULE": "CCOC(=O)c1nn(C2CCCCO2)c2ccc(NC(=O)CN3CCCC3)cc12 (stereo not drawn)", "UNIT_TAG": "%", "growth": 126}
{"MOLECULE": "O=S(=O)(NCCCNc1nccc(-c2c(-c3cccc(F)c3)nc3occn23)n1)c1cccc2ccccc12", "UNIT_TAG": "%", "growth": -18.1}
{"MOLECULE": "NC(=O)c1c(NC(=O)COC(=O)Cc2ccccc2F)sc2c1CCC2", "UNIT_TAG": "%", "growth": 101}
{"MOLECULE": "COc1ccc(-c2cc(-c3ccc(Cl)cc3)nc(SCCCCCCC(=O)NO)n2)cc1", "UNIT_TAG": "%", "growth": 35.6}
{"MOLECULE": "CCCCCCSc1ncnc2nc[nH]c12", "UNIT_TAG": "%", "growth": 95.2}
